assay: Metal chelating activity assessed as inhibition of Cu2+ ion-induced oxidation of ascorbic acid compound treated with CuSO4.5H2O for 5 mins followed by ascorbate addition and measured immediately by spectrophotometric analysis
Catalogue of IC50 values
ENDPOINT LABEL: IC50 (µM)

{"COMPOUND": "O=c1c([N+](=O)[O-])c(NCCc2ccc(Cl)cc2)nc2scnn12", "CMP": ">", "REPORTED VALUE": 200}
{"COMPOUND": "CC(C)(C)Nc1nc2scnn2c(=O)c1[N+](=O)[O-]", "CMP": "=", "REPORTED VALUE": 56}
{"COMPOUND": "CC(C)CNc1nc2scnn2c(=O)c1[N+](=O)[O-]", "CMP": "=", "REPORTED VALUE": 37.2}
{"COMPOUND": "CC(=O)OCCCCNc1nc2scnn2c(=O)c1[N+](=O)[O-]", "CMP": ">", "REPORTED VALUE": 200}
{"COMPOUND": "O=c1c([N+](=O)[O-])c(NCCO)nc2scnn12", "CMP": "=", "REPORTED VALUE": 86.1}
{"COMPOUND": "O=C(O)CCCCC1CCSS1 (stereo not drawn) [LIPOIC ACID, ALPHA]", "CMP": "=", "REPORTED VALUE": 68.9}

====

assay: Metal chelating activity assessed as inhibition of Cu2+ ion-induced oxidation of ascorbic acid compound treated with CuSO4.5H2O for 5 mins followed by ascorbate addition and measured immediately by spectrophotometric analysis
Rule: IC50 below 60 µM gives criterion met, anything at or above gives criterion not met.

{"MOLECULE": "O=c1c([N+](=O)[O-])c(NCC(O)CO)nc2scnn12 (configuration not stated)", "GROUP": "criterion not met"}
{"MOLECULE": "O=c1c([N+](=O)[O-])c(NCCCO)nc2scnn12", "GROUP": "criterion not met"}
{"MOLECULE": "CCc1ccc(CCOc2ccc(CC3SC(=O)NC3=O)cc2)nc1 (configuration not stated)", "GROUP": "criterion met"}
{"MOLECULE": "N=C(N)NN", "GROUP": "criterion not met"}
{"MOLECULE": "O=c1c([N+](=O)[O-])c(NCCCCO)nc2scnn12", "GROUP": "criterion not met"}
{"MOLECULE": "CC(=O)OCCNc1nc2scnn2c(=O)c1[N+](=O)[O-]", "GROUP": "criterion not met"}
{"MOLECULE": "CC(C)Nc1nc2scnn2c(=O)c1[N+](=O)[O-]", "GROUP": "criterion not met"}
{"MOLECULE": "O=c1c([N+](=O)[O-])c(NCCc2ccc(O)cc2)nc2scnn12", "GROUP": "criterion not met"}
{"MOLECULE": "CCCNc1nc2scnn2c(=O)c1[N+](=O)[O-]", "GROUP": "criterion not met"}
{"MOLECULE": "CC1(C)OCC(CNc2nc3scnn3c(=O)c2[N+](=O)[O-])O1 (configuration not stated)", "GROUP": "criterion met"}
{"MOLECULE": "CC(=O)OCCCNc1nc2scnn2c(=O)c1[N+](=O)[O-]", "GROUP": "criterion not met"}
{"MOLECULE": "CCCCNc1nc2scnn2c(=O)c1[N+](=O)[O-]", "GROUP": "criterion not met"}

====

pIC50: −log10 of the molar value.
As an illustration, consider measured pIC50 for molecules on Dipeptidyl peptidase 4 (Homo sapiens).
Sequence (P27487 whole entry): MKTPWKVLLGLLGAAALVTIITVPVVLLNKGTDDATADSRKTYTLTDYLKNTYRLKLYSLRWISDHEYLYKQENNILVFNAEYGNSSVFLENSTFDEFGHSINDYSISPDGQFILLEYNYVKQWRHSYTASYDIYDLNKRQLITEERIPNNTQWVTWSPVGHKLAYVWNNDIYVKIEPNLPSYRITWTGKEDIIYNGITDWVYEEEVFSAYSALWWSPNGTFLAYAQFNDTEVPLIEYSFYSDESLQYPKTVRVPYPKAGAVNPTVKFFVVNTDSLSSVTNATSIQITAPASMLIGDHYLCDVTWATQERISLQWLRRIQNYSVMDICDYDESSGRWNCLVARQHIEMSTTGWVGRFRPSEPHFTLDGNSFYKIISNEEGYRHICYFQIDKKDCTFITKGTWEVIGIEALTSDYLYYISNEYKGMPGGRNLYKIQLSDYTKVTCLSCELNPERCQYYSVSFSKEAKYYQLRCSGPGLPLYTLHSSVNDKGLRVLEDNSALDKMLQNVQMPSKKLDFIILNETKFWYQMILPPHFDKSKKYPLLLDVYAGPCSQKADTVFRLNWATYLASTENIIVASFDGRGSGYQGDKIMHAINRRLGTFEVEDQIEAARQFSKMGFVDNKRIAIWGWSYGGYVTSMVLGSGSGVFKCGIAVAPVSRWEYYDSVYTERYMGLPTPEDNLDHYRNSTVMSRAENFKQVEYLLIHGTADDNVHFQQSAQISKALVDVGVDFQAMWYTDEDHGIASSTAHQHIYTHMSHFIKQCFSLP

{"MOLECULE": "O=c1c([N+](=O)[O-])c(NCCc2ccc(O)cc2)nc2scnn12", "CMP": "<", "pIC50": 4.00}
{"MOLECULE": "O=c1c([N+](=O)[O-])c(NCCc2ccc(Cl)cc2)nc2scnn12", "CMP": "=", "pIC50": 4.25}
